- measured_target: GdpP (Staphylococcus aureus, UniProt A0A0H2XJV8)
- Construct: gene SAUSA300_0014
- Sequence (A0A0H2XJV8 entry or part of it): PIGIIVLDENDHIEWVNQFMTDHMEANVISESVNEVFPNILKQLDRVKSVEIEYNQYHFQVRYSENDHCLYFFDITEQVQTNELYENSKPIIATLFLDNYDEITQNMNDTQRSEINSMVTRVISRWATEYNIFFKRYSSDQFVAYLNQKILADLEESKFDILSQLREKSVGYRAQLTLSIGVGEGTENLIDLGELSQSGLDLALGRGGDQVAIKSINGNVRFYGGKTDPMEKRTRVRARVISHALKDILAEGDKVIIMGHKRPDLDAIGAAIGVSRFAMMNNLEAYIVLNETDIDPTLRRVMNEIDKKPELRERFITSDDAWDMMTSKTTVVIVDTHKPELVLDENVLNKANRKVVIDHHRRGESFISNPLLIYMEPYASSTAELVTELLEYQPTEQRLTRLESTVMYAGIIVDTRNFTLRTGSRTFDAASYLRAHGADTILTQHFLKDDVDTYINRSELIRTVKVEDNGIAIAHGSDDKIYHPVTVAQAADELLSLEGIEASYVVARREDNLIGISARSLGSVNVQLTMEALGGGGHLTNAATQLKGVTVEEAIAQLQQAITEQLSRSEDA
- test: radiolabelled c-di-AMP hydrolysis, TLC
- Assay type: biochemical
assay_endpoint: IC50 (µM)

>>> recorded_value("Nc1ncnc2c1ncn2[C@@H]1O[C@H](COP(=O)(O)O[C@H]2[C@@H](O)[C@H](n3cnc4c(N)ncnc43)O[C@@H]2COP(=O)(O)O)[C@@H](O)[C@H]1O")
78

---

- measured_target: Pde2 (Staphylococcus aureus, UniProt A0A0H2XFX6)
- Sequence (A0A0H2XFX6 entry or part of it): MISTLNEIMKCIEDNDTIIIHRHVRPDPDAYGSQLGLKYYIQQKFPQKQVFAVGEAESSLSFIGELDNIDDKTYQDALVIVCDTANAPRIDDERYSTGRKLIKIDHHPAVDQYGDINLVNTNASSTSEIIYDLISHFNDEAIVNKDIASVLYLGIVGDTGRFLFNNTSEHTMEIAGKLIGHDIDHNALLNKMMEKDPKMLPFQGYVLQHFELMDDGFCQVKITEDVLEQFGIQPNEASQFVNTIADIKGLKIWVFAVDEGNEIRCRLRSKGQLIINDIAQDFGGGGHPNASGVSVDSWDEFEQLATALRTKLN
pIC50: −log10 of the molar value.
assay_endpoint: pIC50

>>> recorded_value("Nc1nc2c(ncn2[C@@H]2O[C@H](COP(=O)(O)OP(=O)(O)O)[C@@H](OP(=O)(O)OP(=O)(O)O)[C@H]2O)c(=O)[nH]1")
3.86
